Reference for the values: patent US8772499B2

# PROCEDURE DETAILS: In vitro rat microsomal stability assay
# Format: in vitro ADME, rat (Sprague-Dawley)
# CONDITION DETAILS: Sprague-Dawley, rat, microsomes, 0.5 h, 0.5 μM, pH 7.4
QUANTITY: RAT MICROSOMAL STABILITY (% REMAINING AFTER 30 MINUTES)

Task: Item OC(c1ccccn1)C1(c2ccccc2OC(F)(F)F)CCNCC1 (stereo not drawn) has what recorded RAT MICROSOMAL STABILITY (% REMAINING AFTER 30 MINUTES)?
Output: 37%

Task: Item CN(C)N=C1CC(c2ccc(OC(F)(F)F)cc2)([C@H](O)c2ccccn2)C1 (stereo partly drawn) has what recorded RAT MICROSOMAL STABILITY (% REMAINING AFTER 30 MINUTES)?
Output: 10%

Task: Item OC1CC(c2ccc(OC(F)(F)F)cc2)(C(O)c2ccccn2)C1 (single isomer, unassigned) [Example 131] has what recorded RAT MICROSOMAL STABILITY (% REMAINING AFTER 30 MINUTES)?
Output: 50%

Task: Item Cc1cccc(C2(C(O)c3ccccn3)CCCO2)c1 (stereo not drawn) has what recorded RAT MICROSOMAL STABILITY (% REMAINING AFTER 30 MINUTES)?
Output: 1.0%

Task: Item OC(c1ccccn1)C1(c2ccc(F)c(C(F)(F)F)c2)CC(F)(F)C1 (stereo not drawn) has what recorded RAT MICROSOMAL STABILITY (% REMAINING AFTER 30 MINUTES)?
Output: 26%

Task: Item OC(C1CCCc2cccnc21)C1(c2ccccc2OC(F)(F)F)CCC1 (stereo not drawn) [Example 191] has what recorded RAT MICROSOMAL STABILITY (% REMAINING AFTER 30 MINUTES)?
Output: <0.01%

Task: Item NC1CCC1C(O)C1(c2cccc(C(F)(F)F)c2)CCC1 (stereo not drawn) has what recorded RAT MICROSOMAL STABILITY (% REMAINING AFTER 30 MINUTES)?
Output: 72%

Task: Item OC(C1CCCc2cccnc21)C1(c2ccc(OC(F)(F)F)cc2)CCC1 (single isomer, unassigned) [Example 177] has what recorded RAT MICROSOMAL STABILITY (% REMAINING AFTER 30 MINUTES)?
Output: <0.01%

Task: Item NC1CCCC1C(O)C1(c2cccc(OC(F)(F)F)c2)CCC1 (stereo not drawn) has what recorded RAT MICROSOMAL STABILITY (% REMAINING AFTER 30 MINUTES)?
Output: 36%

====

# ASSAYED SYSTEM: human TRPV3 (Homo sapiens)
# Construct: expressed in transfected cells
# Sequence (Q8NET8 whole entry): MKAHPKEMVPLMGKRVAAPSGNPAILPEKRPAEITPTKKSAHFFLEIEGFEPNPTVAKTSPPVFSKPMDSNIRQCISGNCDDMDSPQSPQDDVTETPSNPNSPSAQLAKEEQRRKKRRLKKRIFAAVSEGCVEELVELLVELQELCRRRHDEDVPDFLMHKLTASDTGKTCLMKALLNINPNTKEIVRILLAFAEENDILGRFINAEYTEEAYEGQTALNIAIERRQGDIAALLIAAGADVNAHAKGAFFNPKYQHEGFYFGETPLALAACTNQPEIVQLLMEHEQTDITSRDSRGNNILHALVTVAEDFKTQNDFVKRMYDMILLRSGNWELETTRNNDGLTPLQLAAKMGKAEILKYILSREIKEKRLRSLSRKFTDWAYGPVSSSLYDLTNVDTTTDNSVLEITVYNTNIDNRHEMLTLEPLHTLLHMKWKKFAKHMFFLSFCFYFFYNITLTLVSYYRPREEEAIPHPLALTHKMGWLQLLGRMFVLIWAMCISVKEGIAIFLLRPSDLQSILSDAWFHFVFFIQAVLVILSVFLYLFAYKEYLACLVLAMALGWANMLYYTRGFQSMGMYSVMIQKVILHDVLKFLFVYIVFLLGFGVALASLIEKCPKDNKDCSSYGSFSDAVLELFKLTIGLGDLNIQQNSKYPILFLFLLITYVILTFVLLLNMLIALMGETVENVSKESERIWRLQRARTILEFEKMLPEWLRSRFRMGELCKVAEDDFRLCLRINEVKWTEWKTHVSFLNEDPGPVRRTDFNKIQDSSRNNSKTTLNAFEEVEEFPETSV
# PROCEDURE DETAILS: In vitro antagonism of recombinant human TRPV3 activation (FLIPR Tetra calcium assay)
# Format: cell-based
# CONDITION DETAILS: HEK293 cells stably expressing human TRPV3; agonist 2-APB at 80 μM; actual measured value shown parenthetically; in most cases average of at least two runs; read-out: IC50
Field: pIC50. Provide a value for each of the molecules that follow.
Reminder that pIC50 means the negative base-10 logarithm of the concentration expressed in mol/L.

Task: Item NC1CCCC1C(O)C1(c2cccc(C(F)(F)F)c2)CCC1 (stereo not shown) [Example 204] has what recorded pIC50?
Output: 5.80

Task: Item CC1(O)CC(c2ccnc(C(F)(F)F)c2)(C(O)c2ccccn2)C1 (single isomer, unassigned) [Example 307] has what recorded pIC50?
Output: 5.08

Task: Item CC(C)(C)OC(=O)N1CC(c2ccc(C(F)(F)F)cc2)(C(O)c2ccccn2)C1 (stereo not shown) [Example 153] has what recorded pIC50?
Output: 5.10

Task: Item OC(c1ccccn1)C1(c2ccc(C(F)(F)F)cc2)CCOCC1 (stereo not shown) [Example 65] has what recorded pIC50?
Output: 5.65

Task: Item CC1(O)CC(c2ccc(OC(F)(F)F)cc2)(C(O)c2ccccn2)C1 (single isomer, unassigned) [Example 203] has what recorded pIC50?
Output: 4.86

Task: Item OC(c1ccccn1)C1(C2=CCC(F)(F)CC2)CCC1 (stereo not shown) [Example 260] has what recorded pIC50?
Output: 5.27

Task: Item Cc1ccccc1C1(C(O)c2ccccn2)CCCO1 (stereo not shown) [Example 90] has what recorded pIC50?
Output: 6.34

Task: Item OC(c1ccccn1)C1(c2ccc(C(F)(F)F)cc2)CCOC1 (stereo not shown) [Example 78] has what recorded pIC50?
Output: 5.45

Task: Item Cc1cccnc1[C@@H](O)C1(c2ccc(Cl)c(Cl)c2)CCC1 [Example 30] has what recorded pIC50?
Output: 5.76

Task: Item O=C1CC(c2cc(C(F)(F)F)ccn2)([C@@H](O)c2ccccn2)C1 [Example 278] has what recorded pIC50?
Output: 5.18

Task: Item OC1CC(c2ccc(C(F)(F)F)cc2)(C(O)c2ccccn2)C1 (stereo not shown) [Example 201] has what recorded pIC50?
Output: 5.22

Task: Item O[C@@H](c1ccccn1)C1(c2ccc(OC(F)(F)F)cc2)CC(F)(F)C1 [Example 159] has what recorded pIC50?
Output: 5.70

Task: Item NC1CCCCC1C(O)C1(c2ccc(OC(F)(F)F)cc2)CCC1 (stereo not shown) [Example 209] has what recorded pIC50?
Output: 5.34

Task: Item CN1CCC(c2ccccc2OC(F)(F)F)(C(O)c2ccccn2)CC1 (stereo not shown) [Example 149] has what recorded pIC50?
Output: 5.21

====

# ASSAYED SYSTEM: human TRPV3 (Homo sapiens)
# Construct: expressed in transfected cells
# PROCEDURE DETAILS: In vitro antagonism of recombinant human TRPV3 activation (FLIPR Tetra calcium assay)
# Type: cell-based
# CONDITION DETAILS: HEK293 cells stably expressing human TRPV3; agonist 2-APB at 80 μM; actual measured value shown parenthetically; in most cases average of at least two runs; read-out: IC50
QUANTITY: IC50 (nM)
Record the value in nM, omitting the unit from your answer.

Task: Form field: IC50 recorded for N[C@@H]1CCC[C@H]1[C@@H](O)C1(c2cccc(C(F)(F)F)c2)CCC1 with human TRPV3 (Homo sapiens) (enter value)
Output: 500

Task: Form field: IC50 recorded for CC1(O)CC(c2ccc(C(F)(F)F)cc2)(C(O)c2ccccn2)C1 (single isomer, unassigned) [Example 232] with human TRPV3 (Homo sapiens) (enter value)
Output: 1950

Task: Form field: IC50 recorded for OC(c1ccccn1)C1(c2cccc(OC(F)(F)F)c2)CC(F)(F)C1 (centres unmarked) with human TRPV3 (Homo sapiens) (enter value)
Output: 230

Task: Form field: IC50 recorded for OC(c1ncccn1)C1(c2ccc(F)c(F)c2)CCC1 (centres unmarked) with human TRPV3 (Homo sapiens) (enter value)
Output: 10200

Task: Form field: IC50 recorded for OC1CC(c2ccnc(C(F)(F)F)c2)(C(O)c2ccccn2)C1 (centres unmarked) [Example 305] with human TRPV3 (Homo sapiens) (enter value)
Output: 290

====

Field: RAT MICROSOMAL STABILITY (% REMAINING AFTER 30 MINUTES). Provide a value for each of the compounds that follow.
# PROCEDURE DETAILS: In vitro rat microsomal stability assay
# Type: in vitro ADME, rat (Sprague-Dawley)
# CONDITION DETAILS: Sprague-Dawley, rat, microsomes, 0.5 h, 0.5 μM, pH 7.4
# Experimental: Test compounds were evaluated for metabolic stability in an in vitro rat microsomal stability assay using rat liver microsomes (Sprague-Dawley, from BD Biosciences) and/or an in vitro human microsomal stability assay using human liver microsomes (Xenotech). […] Incubations were carried out at 37° C. with a final incubation volume of 135 μL. […] A 1.5 μL aliquot of reduced nicotine adenine disphosphonucleotide (NADPH) (Chem-Impex Int'L Inc., Lot 12532024) was also added to the time-zero plates.
Record the value in %, omitting the unit from your answer.

Task: Item OC(c1ccccn1)C1(C2CCOCC2)CCC1 (centres unmarked) has what recorded RAT MICROSOMAL STABILITY (% REMAINING AFTER 30 MINUTES)?
Output: 0.072

Task: Item O=C1CC(c2ccc(F)c(Cl)c2)(C(O)c2ccccn2)C1 (centres unmarked) has what recorded RAT MICROSOMAL STABILITY (% REMAINING AFTER 30 MINUTES)?
Output: 53

Task: Item OC(c1ccccn1)C1(c2ccc(OC(F)(F)F)cc2)CCCO1 (single isomer, unassigned) [Example 94] has what recorded RAT MICROSOMAL STABILITY (% REMAINING AFTER 30 MINUTES)?
Output: 3.8

Task: Item OC(c1ccccn1)C1(C(c2ccccc2)C(F)(F)F)CCC1 (centres unmarked) has what recorded RAT MICROSOMAL STABILITY (% REMAINING AFTER 30 MINUTES)?
Output: 33
